molecular target: enzyme in 2-e-2 cell lysate (Bacillus thuringiensis); construct: the collected and washed 2-e-2 cells were disrupted using a mortar; endogenous in cells; host or cells: Bacillus thuringiensis 2-e-2 cell lysate; experiment: Substrate reaction characteristics of enzyme in 2-e-2 cell lysate; assay type: biochemical; conditions: 5 mM amino acid, pH 7, 30° C., 1 hour, TLC or amino acid analysis
Sequence (E2GIN1 2-240): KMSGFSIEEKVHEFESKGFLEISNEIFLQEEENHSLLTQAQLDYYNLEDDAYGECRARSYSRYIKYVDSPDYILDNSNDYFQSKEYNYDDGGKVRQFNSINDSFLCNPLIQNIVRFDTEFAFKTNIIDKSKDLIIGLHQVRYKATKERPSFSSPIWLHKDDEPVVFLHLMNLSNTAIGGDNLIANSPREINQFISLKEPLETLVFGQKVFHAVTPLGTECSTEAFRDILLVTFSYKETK
propertyMeasured: Product (reactivity for various amino acids)

>>> print(df.to_string())
                                   compound  testresult
0  NCCCC[C@H](N)C(=O)O [L-Lysine, L-lysine]        None
1  N[C@@H](CCC(=O)O)C(=O)O [L-Glutamic acid, L-glutamic acid]        None
2  CC(C)C[C@H](N)C(=O)O [L-Leucine, L-leucine]        None
3  CC(C)[C@H](N)C(=O)O [L-Valine, L-valine]        None

Where these numbers come from: patent US8273562B2
